# key: entry, value: protein stability index
Test system: Saccharomyces cerevisiae
Experiment: protein stability index of tFT-peptide fusion (C-terminal peptide) (PSI (0-1 scale)); higher = more stable (slower turnover);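 further: PSI is a weighted mean of sequencing reads over stability bins, variants kept only with over 10 reads, mCherry proximal and sfGFP distal, peptide attached via GGGS linker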
Conditions: genetic background: wild type; temperature: 30 C

{"SEQUENCE DATA": "AFSISPFRLRMV", "protein stability index": 0.418}
{"SEQUENCE DATA": "PYFLLLVSIPPS", "protein stability index": 0.525}
{"SEQUENCE DATA": "TPTPLTRRPTQV", "protein stability index": 0.673}
{"SEQUENCE DATA": "YLLLPPPPPPSL", "protein stability index": 0.722}
{"SEQUENCE DATA": "TEVGAWLLLCRC", "protein stability index": 0.363}
{"SEQUENCE DATA": "PMNCIGTRGHQV", "protein stability index": 0.659}
{"SEQUENCE DATA": "SGSPVFLDPPLS", "protein stability index": 0.698}
{"SEQUENCE DATA": "NECKIKKDNTKK", "protein stability index": 0.672}
{"SEQUENCE DATA": "LGRRHAYGSALS", "protein stability index": 0.708}
{"SEQUENCE DATA": "VGVVVVGDVLVW", "protein stability index": 0.424}
{"SEQUENCE DATA": "PFFPVALPFPHL", "protein stability index": 0.7}
{"SEQUENCE DATA": "LVYLQVFSSLLS", "protein stability index": 0.543}
{"SEQUENCE DATA": "PPLPPPPPRLPA", "protein stability index": 0.636}
{"SEQUENCE DATA": "TWGCAGAIRSVG", "protein stability index": 0.689}
{"SEQUENCE DATA": "IEDEHLEDAPYG", "protein stability index": 0.678}
{"SEQUENCE DATA": "AVVCSRLVLFCL", "protein stability index": 0.512}
{"SEQUENCE DATA": "ALCEVLSKSFEF", "protein stability index": 0.662}
{"SEQUENCE DATA": "KKGKGKTETIKT", "protein stability index": 0.695}
{"SEQUENCE DATA": "LEKKRRKNKKEG", "protein stability index": 0.787}

====

# key: entry, value: protein stability index
System: Saccharomyces cerevisiae
Test: protein stability index of tFT-peptide fusion (C-terminal peptide) (PSI (0-1 scale)); higher = more stable (slower turnover)
Settings: genetic background: doa10 deletion; temperature: 30 C

{"SEQUENCE DATA": "GGGGGGGDVLVW", "protein stability index": 0.202}
{"SEQUENCE DATA": "VSISLCVLCPVF", "protein stability index": 0.241}
{"SEQUENCE DATA": "PCLLRYLVHPFP", "protein stability index": 0.65}
{"SEQUENCE DATA": "PFALTPPPSPRS", "protein stability index": 0.356}
{"SEQUENCE DATA": "FSGFPLTLSPPL", "protein stability index": 0.685}
{"SEQUENCE DATA": "LLFGCLIRIGCS", "protein stability index": 0.225}
{"SEQUENCE DATA": "AVRLPFPLLVHL", "protein stability index": 0.427}
{"SEQUENCE DATA": "RLFLLIECSSGF", "protein stability index": 0.271}
{"SEQUENCE DATA": "GRWVLALCLVCG", "protein stability index": 0.164}
{"SEQUENCE DATA": "RLVGVRWEVCNL", "protein stability index": 0.771}
{"SEQUENCE DATA": "LIICRSFLCKVR", "protein stability index": 0.16}
{"SEQUENCE DATA": "DQPLWIGVLAYC", "protein stability index": 0.272}
{"SEQUENCE DATA": "GFSEGRLTIPVY", "protein stability index": 0.295}
{"SEQUENCE DATA": "QWRMLTCLMERL", "protein stability index": 0.398}
{"SEQUENCE DATA": "RTFPYSALSFVS", "protein stability index": 0.216}
{"SEQUENCE DATA": "VDGVSFFVVLLC", "protein stability index": 0.189}
{"SEQUENCE DATA": "SIFWWWLVFILG", "protein stability index": 0.366}
{"SEQUENCE DATA": "FGFWGVVSCCNA", "protein stability index": 0.459}
{"SEQUENCE DATA": "ICFFQGVVVLFR", "protein stability index": 0.365}
